Kindly supply the reported abundance fitness values for the records listed here.
B1: RNA-binding E3 ubiquitin-protein ligase MEX3C, residues 325 to 391; numbered along this chain, Q5U5Q3 (parent)
chain: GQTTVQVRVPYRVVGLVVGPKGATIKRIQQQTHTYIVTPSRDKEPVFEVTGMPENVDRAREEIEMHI

Variants of: B1
EXPERIMENT_SUMMARY: abundance fitness (aPCA) (normalised: wild type 0, dead -1); higher = more abundant; growth selection in yeast, the domain comes from the species named
STATED_CONDITIONS: Homo sapiens
Respond using a number only.

Given item GQTTVQVRVPYRVVGLVVGPKGATIKRIQQQTHTYIVTPSRDKEPVFEVTWMPENVDRAREEIEMHI [G51W] , the value recorded as its abundance fitness is -0.951

Given item GQTTVQVRVPYRVVGLVVGPKGATIKRIQQQTHTYIVTPSRDKQPVFEVTGMPENVDRAREEIEMHI [E44Q] , the value recorded as its abundance fitness is -0.305

Given item GQTTVQVRVPYRVVGLVVGPKGATIKRIQQQTHTYIVTPSRDKEPVFEVTGMPEQVDRAREEIEMHI [N55Q] , the value recorded as its abundance fitness is 0.138

Given item GQTTVQVRVPYRVVGLVVGPKGATIKRIQEQTHTYIVTPSRDKEPVFEVTGMPENVDRAREEIEMHI [Q30E] , the value recorded as its abundance fitness is -0.022

Given item GQTTVQVRVPYRVVGLVVGPKGATIKRIQQSTHTYIVTPSRDKEPVFEVTGMPENVDRAREEIEMHI [Q31S] , the value recorded as its abundance fitness is -0.319

Given item GQTTVQVRVPYRVVGLVVGPKGATIKRIQQQTHTYIVTPSRDKEPVFEVWGMPENVDRAREEIEMHI [T50W] , the value recorded as its abundance fitness is -0.545

Given item GQTTVQVRVPYRVVGLVVGPKGATIKRIQQQTHTYIVTPSRDKEPVFESTGMPENVDRAREEIEMHI [V49S] , the value recorded as its abundance fitness is -0.843

Given item GQTTVQVRVPYRVVGLVVGPHGATIKRIQQQTHTYIVTPSRDKEPVFEVTGMPENVDRAREEIEMHI [K21H] , the value recorded as its abundance fitness is -0.273

Given item GQTTVQVRVPYRVVGLVVGPKGATIKRIQQQTHTYIVTPSRDKEPVFEVTGMGENVDRAREEIEMHI [P53G] , the value recorded as its abundance fitness is -0.541

Given item GQTTVQVRVPYRVVGLVVGPKGATIPRIQQQTHTYIVTPSRDKEPVFEVTGMPENVDRAREEIEMHI [K26P] , the value recorded as its abundance fitness is -0.56

Given item GQTTVQVRVPYRVVGLVVGPKGATIKRIQQQTHTYIVTPSRDKEPVFEVTGMSENVDRAREEIEMHI [P53S] , the value recorded as its abundance fitness is -0.279

Given item GQTTVQVRVPYRVVGLVVGPKGATIKRIQQQTHTYIVTPSWDKEPVFEVTGMPENVDRAREEIEMHI [R41W] , the value recorded as its abundance fitness is -0.245

Given item GQTTVQVRVPYRVVGLVVGPKGNTIKRIQQQTHTYIVTPSRDKEPVFEVTGMPENVDRAREEIEMHI [A23N] , the value recorded as its abundance fitness is -0.568

Given item GQTTVQVRVPYRVVGLVVGPKGATIKRIQQQTHTYIVTPSRDKEPVYEVTGMPENVDRAREEIEMHI [F47Y] , the value recorded as its abundance fitness is -0.677

Given item GQTTVQVRVPYRVVGLVVGPKGWTIKRIQQQTHTYIVTPSRDKEPVFEVTGMPENVDRAREEIEMHI [A23W] , the value recorded as its abundance fitness is -0.553

Given item GQTTVQVRVPYRVVGLVVGPKGATIKRIQQQTHTYIVTPSRDKEPVFEVTGMPENEDRAREEIEMHI [V56E] , the value recorded as its abundance fitness is -0.927

Given item GQTTVQVRVPYRVVGLVVGPKGATIKRIQQQTHTYIVTPSRDKEQVFEVTGMPENVDRAREEIEMHI [P45Q] , the value recorded as its abundance fitness is -0.458

Given item GQTTVQVRVPYRVVGLVVGPKGATIKRIQQQTHTYIVTPSRDKEPVFEVTGMPVNVDRAREEIEMHI [E54V] , the value recorded as its abundance fitness is -0.485

Given item GQTTVQVRVPYRVVGLVVGPKGATIKRIIQQTHTYIVTPSRDKEPVFEVTGMPENVDRAREEIEMHI [Q29I] , the value recorded as its abundance fitness is -0.736

Given item GQTTVQVRVPYRVVGLVVGPKGATIKRIQQQTHTYIVTPSRDKEPVCEVTGMPENVDRAREEIEMHI [F47C] , the value recorded as its abundance fitness is -0.411

Given item GQTTVQVRVPYRVVGLVVGPKGATIKRIQQQTHTYIVTPSNDKEPVFEVTGMPENVDRAREEIEMHI [R41N] , the value recorded as its abundance fitness is -0.058

Given item GQTTVQVRVPYRVVGLVVGPKGATIKRIQQQTHTYIVTPSMDKEPVFEVTGMPENVDRAREEIEMHI [R41M] , the value recorded as its abundance fitness is -0.168

Given item GQTTVQVRVPYRVVGLVVGPKGATIKRIQQQTHTYIVTPCRDKEPVFEVTGMPENVDRAREEIEMHI [S40C] , the value recorded as its abundance fitness is -0.332

Given item GQTTVQVRVPYRVVGLVVGPKGATIKRIQQQTHTYIVTPSRDKEPVFEVTGMPTNVDRAREEIEMHI [E54T] , the value recorded as its abundance fitness is -0.267

Given item GQTTVQVRVPYRVVGLVVGPKGATIKRIQQQTHTYIVTPARDKEPVFEVTGMPENVDRAREEIEMHI [S40A] , the value recorded as its abundance fitness is 0.021

Given item GQTTVQVRVPYRVVGLVVGPKGDTIKRIQQQTHTYIVTPSRDKEPVFEVTGMPENVDRAREEIEMHI [A23D] , the value recorded as its abundance fitness is -0.55

Given item GQTTVQVRVPYRVVGLVVGPKGATIKRIQFQTHTYIVTPSRDKEPVFEVTGMPENVDRAREEIEMHI [Q30F] , the value recorded as its abundance fitness is -0.773

Given item GQTTVQVRVPYRVVGLVVGPKGATIKRIQQNTHTYIVTPSRDKEPVFEVTGMPENVDRAREEIEMHI [Q31N] , the value recorded as its abundance fitness is -0.048

Given item GQTTVQVRVPYRVVGLVVGPKGATIKRIDQQTHTYIVTPSRDKEPVFEVTGMPENVDRAREEIEMHI [Q29D] , the value recorded as its abundance fitness is -0.34

Given item GQTTVQVRVPYRVVGLVVGPKGATIKRIQQQTHTYIVTPSRDKEPGFEVTGMPENVDRAREEIEMHI [V46G] , the value recorded as its abundance fitness is -0.7

Given item GQTTVQVRVPYRVVGLVVGPKGATIKRIQQQTHTYIVTPSRDKEPVFIVTGMPENVDRAREEIEMHI [E48I] , the value recorded as its abundance fitness is -0.007

Given item GQTTVQVRVPYRVVGLVVGPKGATIKRIQQQVHTYIVTPSRDKEPVFEVTGMPENVDRAREEIEMHI [T32V] , the value recorded as its abundance fitness is -0.682

Given item GQTTVQVRVPYRVVGLVVGPKGATIKRTQQQTHTYIVTPSRDKEPVFEVTGMPENVDRAREEIEMHI [I28T] , the value recorded as its abundance fitness is -0.288

Given item GQTTVQVRVPYRVVGLVVGPKGATIWRIQQQTHTYIVTPSRDKEPVFEVTGMPENVDRAREEIEMHI [K26W] , the value recorded as its abundance fitness is -0.722

Given item GQTTVQVRVPYRVVGLVVGPKGATIKRIQQQTHTYIVTPSRDKEPVFEVTGLPENVDRAREEIEMHI [M52L] , the value recorded as its abundance fitness is -0.04

Given item GQTTVQVRVPYRVVGLVVGPKGATIKRIQQQTHTYIVTPSRDKRPVFEVTGMPENVDRAREEIEMHI [E44R] , the value recorded as its abundance fitness is -0.719

Given item GQTTVQVRVPYRVVGLVVGPKGATIKRIQQQTHTYIVTPSRDKEPVFEVTGFPENVDRAREEIEMHI [M52F] , the value recorded as its abundance fitness is -0.206

Given item GQTTVQVRVPYRVVGLVVGPKGATIKFIQQQTHTYIVTPSRDKEPVFEVTGMPENVDRAREEIEMHI [R27F] , the value recorded as its abundance fitness is -0.755

Given item GQTTVQVRVPYRVVGLVVGPKGATIKRIQQQTHTYIVTPSRDKEPVFEVFGMPENVDRAREEIEMHI [T50F] , the value recorded as its abundance fitness is -0.618

Given item GQTTVQVRVPYRVVGLVVGPKGATIKRIQQQTHTYIVTGSRDKEPVFEVTGMPENVDRAREEIEMHI [P39G] , the value recorded as its abundance fitness is -0.467

Given item GQTTVQVRVPYRVVGLVVGPKGATIKRIQQQTHTYIVTPSRDKEPVFVVTGMPENVDRAREEIEMHI [E48V] , the value recorded as its abundance fitness is -0.292

Given item GQTTVQVRVPYRVVGLVVGPKGATIKRIQQQTHTYIVPPSRDKEPVFEVTGMPENVDRAREEIEMHI [T38P] , the value recorded as its abundance fitness is -0.046

Given item GQTTVQVRVPYRVVGLVVGPKGATIKRIQQQTPTYIVTPSRDKEPVFEVTGMPENVDRAREEIEMHI [H33P] , the value recorded as its abundance fitness is -0.845

Given item GQTTVQVRVPYRVVGLVVGPKGATIKRIQQQTHDYIVTPSRDKEPVFEVTGMPENVDRAREEIEMHI [T34D] , the value recorded as its abundance fitness is -0.503

Given item GQTTVQVRVPYRVVGLVVGPKGATIKRIQQQTHTYIVTPSRDKEMVFEVTGMPENVDRAREEIEMHI [P45M] , the value recorded as its abundance fitness is -0.467

Given item GQTTVQVRVPYRVVGLVVGPKGATIKRIQQITHTYIVTPSRDKEPVFEVTGMPENVDRAREEIEMHI [Q31I] , the value recorded as its abundance fitness is -0.18

Attribution: the Human Domainome abundance scans (Beltran et al. 2025)
